# testedOn: Acetolactate synthase, chloroplastic (Arabidopsis thaliana)
# Sequence (P17597 whole entry): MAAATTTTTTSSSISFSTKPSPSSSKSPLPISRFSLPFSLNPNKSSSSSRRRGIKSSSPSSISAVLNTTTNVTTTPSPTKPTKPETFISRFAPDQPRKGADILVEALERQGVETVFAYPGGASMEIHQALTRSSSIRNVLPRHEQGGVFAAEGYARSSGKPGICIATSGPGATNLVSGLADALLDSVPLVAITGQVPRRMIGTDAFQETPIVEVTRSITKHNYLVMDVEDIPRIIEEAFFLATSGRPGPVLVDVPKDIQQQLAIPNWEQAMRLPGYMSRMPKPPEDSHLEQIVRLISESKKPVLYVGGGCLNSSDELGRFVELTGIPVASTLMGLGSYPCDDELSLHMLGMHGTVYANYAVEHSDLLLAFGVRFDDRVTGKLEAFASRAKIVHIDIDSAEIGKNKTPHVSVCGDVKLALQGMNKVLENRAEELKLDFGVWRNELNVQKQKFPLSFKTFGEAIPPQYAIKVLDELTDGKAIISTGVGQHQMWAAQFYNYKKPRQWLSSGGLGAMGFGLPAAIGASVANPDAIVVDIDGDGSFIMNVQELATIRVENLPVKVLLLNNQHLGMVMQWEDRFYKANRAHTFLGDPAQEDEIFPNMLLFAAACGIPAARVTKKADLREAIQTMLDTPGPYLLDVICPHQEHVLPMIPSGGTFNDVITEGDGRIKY
Each entry below lists one item and its recorded log10(Ki) value.
Hello, just confirming the data are log10 of Ki with units of µM.

Solved entries (count: 2):
>  <inputSmiles>
Cc1cc2nc(S(=O)(=O)Nc3ccc(C(F)(F)F)cc3Cl)nn2c(C)n1

>  <measuredValue>
2.25

$$$$
>  <inputSmiles>
COC(=O)c1cccc(Cl)c1NS(=O)(=O)c1nc2nc(OC)ccn2n1

>  <measuredValue>
0.21

$$$$

Query block: Could you share which log10(Ki) value was measured for `Cc1cc2nc(S(=O)(=O)Nc3ccccc3F)nn2c(C)n1` ?
Result block: 1.44

Query block: Could you share which log10(Ki) value was measured for `Cc1ccn2nc(S(=O)(=O)Nc3c(F)cccc3F)nc2n1` ?
Result block: -0.44

Query block: Could you share which log10(Ki) value was measured for `COc1ccn2nc(S(=O)(=O)Nc3cccc(Cl)c3Cl)nc2n1` ?
Result block: 1.17

Query block: Could you share which log10(Ki) value was measured for `Cc1nc(C)n2nc(S(=O)(=O)Nc3ccccc3F)nc2c1Cl` ?
Result block: 1.41

Query block: Could you share which log10(Ki) value was measured for `COc1ccn2nc(S(=O)(=O)Nc3c(F)cccc3F)nc2n1` ?
Result block: 1.27

Query block: Could you share which log10(Ki) value was measured for `Cc1nc(C(F)(F)F)cc2nc(S(=O)(=O)Nc3ccccc3F)nn12` ?
Result block: 2.76

Query block: Could you share which log10(Ki) value was measured for `Cc1nc(C(F)(F)F)cc2nc(S(=O)(=O)Nc3c(Cl)cccc3Cl)nn12` ?
Result block: 0.70

Query block: Could you share which log10(Ki) value was measured for `Cc1cc2nc(S(=O)(=O)Nc3cc(F)ccc3F)nn2c(C)n1` ?
Result block: 1.45

Query block: Could you share which log10(Ki) value was measured for `COc1ccn2nc(S(=O)(=O)Nc3ccccc3Br)nc2n1` ?
Result block: 1.35

Query block: Could you share which log10(Ki) value was measured for `COc1ccn2nc(S(=O)(=O)Nc3ccccc3F)nc2n1` ?
Result block: 1.41

Query block: Could you share which log10(Ki) value was measured for `COc1ccn2nc(S(=O)(=O)Nc3cc(F)ccc3F)nc2n1` ?
Result block: 1.73

Query block: Could you share which log10(Ki) value was measured for `Cc1nc(C(F)(F)F)cc2nc(S(=O)(=O)Nc3c(F)cccc3F)nn12` ?
Result block: 1.85

Query block: Could you share which log10(Ki) value was measured for `Cc1cc2nc(S(=O)(=O)Nc3cc(Cl)ccc3C)nn2c(C)n1` ?
Result block: 0.89
